# System: CCRIS mutagenicity, Ames/micronucleus/aberration tests
# Protocol notes: CCRIS mutagenicity studies
# Run parameters: Test System: AMES SALMONELLA TYPHIMURIUM; Strain/Indicator: TA100; Metabolic Activation: NONE; Method: STANDARD PLATE
# From the text: The CCRIS database contains chemical records with carcinogenicity, mutagenicity, tumor promotion, and tumor inhibition test results. It was developed by the National Cancer Institute (NCI). Data are derived from studies cited in primary journals, current awareness tools, NCI reports, and other sources. Test results have been reviewed by experts in carcinogenesis and mutagenesis. CCRIS provides historical information from the years 1985 - 2011. It is no longer updated. […]
Calls of active or inactive are those of the source. The rule behind the calls is not given here.
Entry note: the call must match one of T = active, F = inactive

Illustrative cases are given below, each with its answer.
                                   compound  class_assignment
0  C=C(C)C(=O)OCCOC(=O)NCCC(C)CC(C)(C)CNC(=O)OCCOC(=O)C(=C)C (stereo unspecified)                 F
1                          O=CC(Cl)=C(Cl)Cl                 T
2  C#C[C@]1(O)CC[C@H]2[C@@H]3CCC4=CC(=O)CC[C@@H]4[C@H]3CC[C@@]21CC                 F
3           COc1cc(CNC(=O)CCCCCCC(C)C)ccc1O                 F
4                           CC(C)N=C=NC(C)C                 F
5                      NN(c1ccccc1)c1ccccc1                 F

Query: Dear colleague, could you share the recorded outcome for CC(Br)C(=O)Nc1ccccc1 (stereo unspecified) when you have a moment?
Response: F

Query: Recorded test outcome, item O=C(Nc1cccc(F)c1)c1csc([N+](=O)[O-])c1
Response: T

Query: Called result for c1cc2cccc3c4cccc5cccc(c(c1)c23)c54
Response: F

Query: Identify the outcome logged in this assay for the compound shown: O=c1c(O)c2c(c3c1ccc1[nH]cccc13)O2
Response: F

Query: Lab log entry: O=C1c2c(O)ccc3c2[C@H](c2ccc(O)c4c2[C@H]3[C@H]2O[C@H]2C4=O)[C@H]2O[C@@H]12 — outcome as called in the assay?
Response: T

Query: Any idea what this test logged for O=C(O)[C@H](O)[C@@H](O)C(=O)O ?
Response: F

Query: Status in this test for COC(=O)C1=CCCN(N=O)C1 ?
Response: T

Query: Which result was noted for this compound in the test: OCc1ccc(C(F)(F)F)cc1
Response: F

Query: GET /call?item= Nc1ncnc2c1ncn2[C@@H]1O[C@H](CO)C[C@H]1O returns the recorded outcome of this test.
Response: T

Query: Called result for Cc1cc([N+](=O)[O-])c(C)c2c1[nH]c1ccc([N+](=O)[O-])cc12
Response: T

Query: Which outcome was assigned to Cc1ccc2ccc3ccccc3c2c1C in this test?
Response: F

Query: Per the assay record, what outcome was assigned to O=C(O)c1ccccc1[O-].O=C(O)c1ccccc1[O-].O=C(O)c1ccccc1[O-].[Cr+3] ?
Response: F

Query: How did this test come out for Cc1ccc(NCCCl)cc1 ?
Response: T

Query: Which outcome was entered for the compound O=C(O)c1ccco1 in this test?
Response: F

Query: What did this assay record as the result for CC(C)(S)[C@@H](N)C(=O)O ?
Response: T
